Below is a list of entries, each paired with its recorded Fresh Weight (g) Heterozygous GAT-HRA value.
# Tested on: heterozygous GAT-HRA corn
# assay comment: Postemergence effect of ALS herbicides, glyphosate and glufosinate (fresh weight, visual injury)
# applied conditions: applied two weeks after planting, 200 g/ha (glyphosate 3472 g ae/ha, glufosinate ammonium 1870 g/ha), fresh shoots 2 weeks after treatment, mean of four replications, untreated 98.8 g
Could you give me the number in g? Just the number is fine.

Example results:
{"compound": "CCOC(=O)c1ccccc1S(=O)(=O)NC(=O)Nc1nc(Cl)cc(OC)n1", "measurement target": "heterozygous GAT-HRA corn", "Fresh Weight (g) Heterozygous GAT-HRA": 95.5}
{"compound": "CCCOc1nn(C(=O)NS(=O)(=O)c2ccccc2C(=O)OC)c(=O)n1C", "measurement target": "heterozygous GAT-HRA corn", "Fresh Weight (g) Heterozygous GAT-HRA": 101.2}
{"compound": "COCc1cnc(C2=NC(C)(C(C)C)C(=O)N2)c(C(=O)O)c1 (stereo not drawn)", "measurement target": "heterozygous GAT-HRA corn", "Fresh Weight (g) Heterozygous GAT-HRA": 90.9}
{"compound": "COc1cc(OC)nc(NC(=O)NS(=O)(=O)c2ncccc2C(=O)N(C)C)n1", "measurement target": "heterozygous GAT-HRA corn", "Fresh Weight (g) Heterozygous GAT-HRA": 94.7}
{"compound": "COc1cc(OC)nc(Sc2cccc(Cl)c2C(=O)[O-])n1.[Na+] [Pyrithiobac Na^+, pyrithiobac-sodium]", "measurement target": "heterozygous GAT-HRA corn", "Fresh Weight (g) Heterozygous GAT-HRA": 87.9}

Next up:
For record `COC(=O)c1ccccc1S(=O)(=O)NC(=O)Nc1nc(C)cc(C)n1` the listed Fresh Weight (g) Heterozygous GAT-HRA is 104.5

Ref: patent US20080234130A1
